Cited source for all entries: patent US20240376097A1

- Target Desc: Recombinant human Bcl-2 protein (Homo sapiens (Human), UniProt P10415)
- Sequence (P10415 whole entry): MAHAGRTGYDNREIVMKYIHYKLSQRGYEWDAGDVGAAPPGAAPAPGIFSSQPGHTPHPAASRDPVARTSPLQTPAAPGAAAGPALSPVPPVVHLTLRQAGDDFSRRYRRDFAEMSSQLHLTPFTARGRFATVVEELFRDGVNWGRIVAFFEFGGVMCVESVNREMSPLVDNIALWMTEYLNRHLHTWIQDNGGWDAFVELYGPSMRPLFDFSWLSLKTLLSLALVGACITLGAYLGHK
- Test Summary: Bcl-2 TR-FRET Assay
- Type: binding
- Condition: Bcl-2 wild type, TR-FRET; read-out: Biochemical assay (IC50, nM) Bcl-2 WT
Criterion: IC50 strictly less than 0.07 nM. Met: Satisfied. Not met: Not satisfied.

For this compound, is IC50 lower than 0.07 nM? `COc1cc(CN2CCN(C3CC4(C3)CN(c3ccc(C(=O)NS(=O)(=O)c5ccc(NC[C@H]6CC[C@](C)(O)CC6)c([N+](=O)[O-])c5)c(Oc5cnc6[nH]ccc6c5)c3)C4)[C@H](c3ccccc3C(C)C)C2)cnc1OC`
Satisfied

For this compound, is IC50 lower than 0.07 nM? `COc1cc(CN2CCN(C3CC4(C3)CN(c3ccc(C(=O)NS(=O)(=O)c5ccc(NC[C@H]6CC[C@](C)(O)CC6)c([N+](=O)[O-])c5)c(Oc5cnc6[nH]cc(F)c6c5)c3)C4)[C@H](c3ccccc3C(C)C)C2)ccc1C1COC1`
Not satisfied

For this compound, is IC50 lower than 0.07 nM? `CC(C)c1ccccc1[C@@H]1CN(Cc2ccnc3c2OC(C)(C)CO3)CCN1C1CC2(C1)CN(c1ccc(C(=O)NS(=O)(=O)c3ccc(NC[C@H]4CC[C@](C)(O)CC4)c([N+](=O)[O-])c3)c(Oc3cnc4[nH]ccc4c3)c1)C2`
Satisfied

For this compound, is IC50 lower than 0.07 nM? `COc1cc(CN2CCN(C3CC4(C3)CN(c3ccc(C(=O)NS(=O)(=O)c5ccc(NC[C@H]6CC[C@](C)(O)CC6)c([N+](=O)[O-])c5)c(Oc5cnc6[nH]cc(F)c6c5)c3)C4)[C@H](c3ccccc3C(C)C)C2)ccc1OC1CC1`
Not satisfied

For this compound, is IC50 lower than 0.07 nM? `COc1ccc(CN2CCN(C3CC4(CCN(c5ccc(C(=O)NS(=O)(=O)c6ccc(NC[C@H]7CC[C@](C)(O)CC7)c([N+](=O)[O-])c6)c(Oc6cc7c(F)c[nH]c7nc6C)c5)CC4)C3)[C@H](c3ccccc3C(C)C)C2)cc1`
Not satisfied

For this compound, is IC50 lower than 0.07 nM? COc1nn(C)cc1CN1CCN(C2CC3(CCN(c4ccc(C(=O)NS(=O)(=O)c5ccc(NC[C@H]6CC[C@](C)(O)CC6)c([N+](=O)[O-])c5)c(Oc5cnc6[nH]ccc6c5)c4)CC3)C2)C(c2ccccc2C(C)C)C1 (some centres unmarked)
Satisfied

----------
- Target Desc: recombinant human Bcl-2 D103Y protein (Homo sapiens (Human), UniProt P10415, D103Y)
- Sequence (P10415 whole entry D103Y): as the sequence (P10415 whole entry) above, with D103Y counted along it
- Test Summary: Bcl-2-D103Y Biochemical Assay (TR-FRET)
- Format: binding
- Condition: ratio of IC50
- Method: Biological Example: Bcl-2-D103Y Biochemical Assay […]. The TR-FRET signals (ex337 nm, em490 nm/520 nm) were read on BMG PHERAstar FSX instrument. The inhibition percentage of Bcl-2 D103Y interaction with its ligand in presence of increasing concentrations of compounds was calculated based on the ratio of fluorescence at 490 nm to that at 520 nm. The IC50 for each compound was derived from fitting the data to the four-parameter logistic equation by Dotmatics.
Kindly state Ratio of Bcl-2 D103Y/Bcl-2 WT for each of the entries shown.
Lab note: jot the number down without any unit.

Given the entry `COc1cc(CN2CCN(C3CC4(C3)CN(c3ccc(C(=O)NS(=O)(=O)c5ccc(NC[C@H]6CC[C@](C)(O)CC6)c([N+](=O)[O-])c5)c(Oc5cnc6[nH]cc(F)c6c5)c3)C4)[C@H](c3ccccc3C(C)C)C2)ccc1NC(C)C` , report its measured Ratio of Bcl-2 D103Y/Bcl-2 WT.
1.4

Given the entry `COc1cc(CN2CCN(C3CC4(C3)CN(c3ccc(C(=O)NS(=O)(=O)c5ccc(NC[C@H]6CC[C@](C)(O)CC6)c([N+](=O)[O-])c5)c(Oc5cnc6[nH]cc(F)c6c5)c3)C4)[C@H](c3ccccc3C(C)C)C2)ccc1C1CC1` , report its measured Ratio of Bcl-2 D103Y/Bcl-2 WT.
1.6
